We begin with a simple list: items and their reported log10(Kd).
subject-of-test: Mhp1 (Microbacterium maritypicum, UniProt D6R8X8)
Sequence (D6R8X8 whole entry): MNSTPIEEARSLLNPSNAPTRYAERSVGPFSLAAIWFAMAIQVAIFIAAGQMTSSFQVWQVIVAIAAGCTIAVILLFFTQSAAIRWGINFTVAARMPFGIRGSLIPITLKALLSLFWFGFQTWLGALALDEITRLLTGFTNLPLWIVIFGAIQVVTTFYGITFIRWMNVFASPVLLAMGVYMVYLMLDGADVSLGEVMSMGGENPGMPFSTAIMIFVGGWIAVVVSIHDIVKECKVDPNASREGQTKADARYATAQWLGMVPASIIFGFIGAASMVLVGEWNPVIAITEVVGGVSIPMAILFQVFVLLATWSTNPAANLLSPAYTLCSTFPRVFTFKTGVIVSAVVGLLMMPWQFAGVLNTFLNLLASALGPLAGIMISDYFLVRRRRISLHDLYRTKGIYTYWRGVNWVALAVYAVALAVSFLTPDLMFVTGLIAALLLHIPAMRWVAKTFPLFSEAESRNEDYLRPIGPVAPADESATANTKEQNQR
experiment: stopped-flow tryptophan spectrophotofluorimetry
conditions-used: read-out: Apparent Kd
Response schema: value (number) is log10 of Kd in units of µM.

Example compounds with recorded log10(Kd):
{"columns": ["compound", "subject-of-test", "log10(Kd)"],
 "data": [
  ["O=C1NC(=O)[C@H](Cc2ccc3ccccc3c2)N1 [L-NMH]", "Mhp1 (Microbacterium maritypicum, UniProt D6R8X8)", 0.56],
  ["O=C1NC(=O)C(=Cc2cccc(Br)c2)N1 (stereo in doubt) [BVH]", "Mhp1 (Microbacterium maritypicum, UniProt D6R8X8)", 0.30],
  ["O=C1NC(=O)[C@@H](Cc2ccc3ccccc3c2)N1 [D-NMH]", "Mhp1 (Microbacterium maritypicum, UniProt D6R8X8)", 0.26],
  ["O=C1NC(=O)[C@@H](Cc2ccccc2)N1 [D-BH]", "Mhp1 (Microbacterium maritypicum, UniProt D6R8X8)", 2.11],
  ["O=C1NC(=O)[C@@H](Cc2c[nH]c3ccccc23)N1 [D-IMH]", "Mhp1 (Microbacterium maritypicum, UniProt D6R8X8)", 1.31]
]}

Query string: Give log10(Kd) only, for O=C1NC(=O)[C@H](Cc2c[nH]c3ccccc23)N1 [L-IMH] , using Mhp1 (Microbacterium maritypicum, UniProt D6R8X8) data.
Result string: 1.28

Query string: GET log10(Kd) | system: Mhp1 (Microbacterium maritypicum, UniProt D6R8X8) | item: O=C1NC(=O)[C@H](Cc2ccccc2)N1 [L-BH, (5S)-5-benzylimidazolidine-2,4-dione]
Result string: 1.56

====

subject-of-test: Mhp1 (Microbacterium maritypicum, UniProt D6R8X8)
experiment: inhibition of […]-L-IMH uptake into E. coli cells expressing Mhp1
conditions-used: read-out: Apparent IC5_0
Note to self: use 1 only for IC50 readings below 100 µM; a reading exactly at 100 µM still gets -1.

{"columns": ["compound", "assigned-class"],
 "data": [
  ["O=C1NC(=O)C(=Cc2cccc(Br)c2)N1 (stereo in doubt) [BVH]", 1],
  ["O=C1NC(=O)[C@H](Cc2ccccc2)N1 [L-BH, (5S)-5-benzylimidazolidine-2,4-dione]", -1],
  ["O=C1NC(=O)[C@@H](Cc2ccc3ccccc3c2)N1 [D-NMH]", 1],
  ["O=C1NC(=O)[C@H](Cc2c[nH]c3ccccc23)N1 [L-IMH]", -1]
]}

Please examine the following record next.
Query string: Confirm or reject: IC50 of O=C1NC(=O)[C@H](Cc2ccc3ccccc3c2)N1 [L-NMH] lies strictly below 100 µM
Result string: 1
